Listed here: items and their measured pKi.
- target under test: UniProtKB P78352
Peptide text beside a SMILES is read from it.
Schema: pKi number; meaning minus log10 of the concentration expressed in molar units.

The following compounds have reported results that may help.
- compound: "CC[C@H](C)[C@H](NC(=O)CCOCCOCCOCCOCCOCCOCCOCCOCCOCCOCCOCCOCCOCCC(=O)N[C@H](C(=O)N[C@@H](CCC(=O)O)C(=O)N[C@@H](CO)C(=O)N[C@@H](CC(=O)O)C(=O)N[C@H](C(=O)O)C(C)C)[C@@H](C)CC)C(=O)N[C@@H](CCC(=O)O)C(=O)N[C@@H](CO)C(=O)N[C@@H](CC(=O)O)C(=O)N[C@H](C(=O)O)C(C)C"
  target under test: "UniProtKB P78352"
  pKi: 4.66
- compound: "CC(C)[C@H](NC(=O)[C@H](CC(=O)O)NC(=O)[C@H](CO)NC(=O)[C@@H](N)CCC(=O)O)C(=O)O [ESDV (8), ESDV] (H-ESDV-OH; N-terminus and C-terminus assumed)"
  target under test: "UniProtKB P78352"
  pKi: 4.25

--- query ---
Value lookup for pKi; key = CC(C)[C@H](NC(=O)[C@H](C)NC(=O)[C@@H](NC(=O)[C@@H](N)CCC(=O)O)[C@@H](C)O)C(=O)O
4.54
